Test system: MALME-3M melanoma
PROCEDURE_DETAILS: NCI-60 one-dose screen, 48 h (100 = growth as untreated, 0 = no growth, -100 = all killed)
MEASUREMENT_CONDITIONS: 10 µM unless noted
This is part of a sample that, as a whole, favours compounds with a hit. Of some 83,000 tested, about 20% had one in any assay.
Label 0.0 if growth falls below 40%; label 1.0 in every other case.

Check out these entries, answers already filled in.
- MOLECULE: "CCN(CC)CCCC(C)Nc1cc(O)cc2cccnc12 (centres undefined)"
  CAT: 1.0
- MOLECULE: "COc1ccc(C(=O)CSc2nc(-c3cc(OC)ccc3OC)cc(-c3ccc(Cl)cc3)c2C#N)cc1"
  CAT: 0.0
- MOLECULE: "O=[N+]([O-])c1ccc(N=Nc2cc(S(=O)(=O)O)c3cccc(S(=O)(=O)O)c3c2O)cc1"
  CAT: 1.0
- MOLECULE: "C/C(=N\\NC(=O)CSc1nc2ccccc2c(=O)n1CCc1ccc(S(N)(=O)=O)cc1)c1ccccn1"
  CAT: 0.0

Problem: Determine whether measured growth meets or exceeds 40% for N#Cc1c(NC(=O)NCc2ccccc2)sc2c1CCCCC2
Solution: 1.0

Problem: Determine whether measured growth meets or exceeds 40% for COc1ccc(CNCCN2C(=O)c3ccc4c5c(ccc(c35)C2=O)C(=O)N(CCNCc2ccc(OC)c(OC)c2OC)C4=O)c(OC)c1OC
Solution: 0.0

Problem: Determine whether measured growth meets or exceeds 40% for CCN1C(=O)/C(=C/C(=O)OC)S/C1=N\NC(=O)c1cc2ccc1/C=C\c1ccc(cc1)/C=C\2
Solution: 1.0

Problem: Determine whether measured growth meets or exceeds 40% for Cc1ccc(-c2[nH][nH]c(=O)c2-c2nc3ccccc3s2)cc1
Solution: 1.0
